# Test system: 817829-284-R-J1-PDC complex spheroids, viability
# assay_explanation: Anticancer human tumor 817829-284-R-J1-PDC patient-derived colon adenocarcinoma cell line growth inhibition [GQUAD]; active = viability on the fitted dose curve at most 10% of control; inactive = the rest
# protocol_conditions: second compound 10 µM; first compound 0.0316 µM
# From the text: DNA G-quadruplex Stabilizer Agents in Combinations in Complex Spheroids A high-throughput screen of multi-cell type tumor spheroids was designed to identify active combinations of DNA G-quadruplex stabilizer agents and targeted small molecules. […] Compounds. […] If the clinical Cmax for an agent had not been determined, the highest concentration tested was 10 microM. […]
// allowed return values: active, inactive

Here are 3 compounds together with their reported answers.
CC(=O)O[C@H]1C(=O)[C@@]2(C)[C@H]([C@H](OC(=O)c3ccccc3)[C@]3(O)C[C@H](OC(=O)[C@H](O)[C@@H](NC(=O)c4ccccc4)c4ccccc4)C(C)=C1C3(C)C)[C@]1(OC(C)=O)CO[C@@H]1C[C@@H]2O + Cc1[nH]c2ccc(F)cc2c1-c1nc2c3cccnc3c3ncccc3c2[nH]1; active
CCc1c2c(nc3ccc(O)cc13)-c1cc3c(c(=O)n1C2)COC(=O)[C@]3(O)CC + Cc1[nH]c2ccc(F)cc2c1-c1nc2c3cccnc3c3ncccc3c2[nH]1; active
COc1ncnc(C2CC2)c1-c1ncc2cnn(Cc3ccc(-c4nc(C(F)(F)F)cn4C(C)C)cc3)c2n1 + CN(C)c1ccc(Nc2c3ccc(NC(=O)CCN4CCCC4)cc3nc3cc(NC(=O)CCN4CCCC4)ccc23)cc1; inactive

Test call, this compound: CC(C)n1c(=O)n(C)c2cnc3cc(F)c(-c4ccc(OCCCN5CCCCC5)nc4)cc3c21 + Cc1cnc(CNC(=O)c2c(=O)c3ccc(N4CCCN(C)CC4)nc3n3c2sc2ccccc23)cn1
active

Continue with CC(C)n1c(=O)n(C)c2cnc3cc(F)c(-c4ccc(OCCCN5CCCCC5)nc4)cc3c21 + CN(C)c1ccc(Nc2c3ccc(NC(=O)CCN4CCCC4)cc3nc3cc(NC(=O)CCN4CCCC4)ccc23)cc1
inactive

----------
# Test system: 817829-284-R-J1-PDC complex spheroids, viability
# assay_explanation: Anticancer human tumor 817829-284-R-J1-PDC cell line growth inhibition [GQUAD];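 also: spheroids exposed to agents for 7 days before readout; percent viability relative to DMSO vehicle control taken as 100%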
# protocol_conditions: second compound 0.0316 µM; first compound 10 µM; hits give low values
metric_name: viability, T/C

Worked cases, answers included:
CC(C)(O)C1CCC(Nc2ccc3ncc(-c4cccc(C(F)(F)F)c4)n3n2)CC1 (stereo not given) + Cc1cnc(CNC(=O)c2c(=O)c3ccc(N4CCCN(C)CC4)nc3n3c2sc2ccccc23)cn1; 13.3%
COc1ncnc(C2CC2)c1-c1ncc2cnn(Cc3ccc(-c4nc(C(F)(F)F)cn4C(C)C)cc3)c2n1 + Cc1cnc(CNC(=O)c2c(=O)c3ccc(N4CCCN(C)CC4)nc3n3c2sc2ccccc23)cn1; 64.1%
CC1COCCN1c1cc(C2(S(C)(=N)=O)CC2)nc(-c2ccnc3[nH]ccc23)n1 (stereo not given) + CN(C)c1ccc(Nc2c3ccc(NC(=O)CCN4CCCC4)cc3nc3cc(NC(=O)CCN4CCCC4)ccc23)cc1; 7.5%

Let us move to another entry and its viability, T/C.
Requested field: viability, T/C. Item: C#Cc1c(F)ccc2cc(O)cc(-c3ncc4c(N5CC6CCC(C5)N6)nc(OCC56CCCN5CC(F)C6)nc4c3F)c12 (stereo not given) + CN(C)c1ccc(Nc2c3ccc(NC(=O)CCN4CCCC4)cc3nc3cc(NC(=O)CCN4CCCC4)ccc23)cc1
121%

Values compiled from PubChem BioAssay AID2060503.
